- CONDITION_CONTEXT: 293.15 K; 101 kPa; Liquid
Give rule met when the value for mass density is at least 1000 kg/m3. Give rule not met when it is less.

Below are worked cases with known answers.
CCCCCCn1cc[n+](C)c1.F[P-](F)(F)(F)(F)F [1-hexyl-3-methylimidazolium hexafluorophosphate]	rule met
CCO [ethanol]	rule not met
CCCCn1cc[n+](C)c1.COS(=O)(=O)[O-] [1-butyl-3-methylimidazolium methyl sulfate]	rule met
CCCCn1cc[n+](C)c1.F[P-](F)(F)(F)(F)F [1-butyl-3-methylimidazolium hexafluorophosphate]	rule met
CCCCCCCC[n+]1ccn(C)c1.F[P-](F)(F)(F)(F)F [1-octyl-3-methylimidazolium hexafluorophosphate]	rule met

Qu. In plain terms: is recorded mass density at least 1000 kg/m3 for COS(=O)(=O)[O-].Cn1cc[n+](C)c1 [1,3-dimethylimidazolium methylsulfate] ?
Ans. rule met

====

refractive index listing for selected compounds.
- PROTOCOL_SUMMARY: refractive index (Na D-line) (dimensionless)
- CONDITION_CONTEXT: 298.15 K; 101.33 kPa; Liquid
# respond with the number and nothing more

CCCCCCn1cc[n+](C)c1.F[P-](F)(F)(F)(F)F [1-hexyl-3-methylimidazolium hexafluorophosphate]	1.41787
CCCCn1cc[n+](C)c1.COS(=O)(=O)[O-] [1-butyl-3-methylimidazolium methyl sulfate]	1.47942

Qu. Output refractive index of CCCCn1cc[n+](C)c1.F[P-](F)(F)(F)(F)F [1-butyl-3-methylimidazolium hexafluorophosphate]
Ans. 1.40937

Qu. Output refractive index of COS(=O)(=O)[O-].Cn1cc[n+](C)c1 [1,3-dimethylimidazolium methylsulfate]
Ans. 1.4827

Qu. Output refractive index of CCO
Ans. 1.35929

Qu. Output refractive index of CCCCCCCC[n+]1ccn(C)c1.F[P-](F)(F)(F)(F)F [1-octyl-3-methylimidazolium hexafluorophosphate]
Ans. 1.42302

====

speed of sound listing for selected molecules.
- CONDITION_CONTEXT: 298.15 K; 101 kPa; Liquid
± gives the expanded uncertainty stated by the source.

CCO	1143 ± 10 m/s

Qu. Output speed of sound of CCCCCCCC[n+]1ccn(C)c1.F[P-](F)(F)(F)(F)F [1-octyl-3-methylimidazolium hexafluorophosphate]
Ans. 1408 ± 11 m/s

Qu. Output speed of sound of CCCCn1cc[n+](C)c1.F[P-](F)(F)(F)(F)F [1-butyl-3-methylimidazolium hexafluorophosphate]
Ans. 1443 ± 12 m/s

Qu. Output speed of sound of CCCCCCn1cc[n+](C)c1.F[P-](F)(F)(F)(F)F [1-hexyl-3-methylimidazolium hexafluorophosphate]
Ans. 1424 ± 11 m/s

Qu. Output speed of sound of COS(=O)(=O)[O-].Cn1cc[n+](C)c1 [1,3-dimethylimidazolium methylsulfate]
Ans. 1813 ± 14 m/s

Qu. Output speed of sound of CCCCn1cc[n+](C)c1.COS(=O)(=O)[O-] [1-butyl-3-methylimidazolium methyl sulfate]
Ans. 1658 ± 13 m/s

====

refractive index listing for selected compounds.
- PROTOCOL_SUMMARY: refractive index (Na D-line) (dimensionless)
- CONDITION_CONTEXT: 293.15 K; 101.33 kPa; Liquid
# respond with the number and nothing more

Solved cases (5 shown):
COS(=O)(=O)[O-].Cn1cc[n+](C)c1 [1,3-dimethylimidazolium methylsulfate]	1.48392
CCCCCCn1cc[n+](C)c1.F[P-](F)(F)(F)(F)F [1-hexyl-3-methylimidazolium hexafluorophosphate]	1.41923
CCO	1.36138
CCCCCCCC[n+]1ccn(C)c1.F[P-](F)(F)(F)(F)F [1-octyl-3-methylimidazolium hexafluorophosphate]	1.4244
CCCCn1cc[n+](C)c1.COS(=O)(=O)[O-] [1-butyl-3-methylimidazolium methyl sulfate]	1.48077

Qu. Output refractive index of CCCCn1cc[n+](C)c1.F[P-](F)(F)(F)(F)F [1-butyl-3-methylimidazolium hexafluorophosphate]
Ans. 1.41069

====

- CONDITION_CONTEXT: 303.15 K; 101 kPa; Liquid
REPORTED_METRIC: speed of sound (m/s)
// return numeric value only (unit: m/s, not printed)

Solved cases (5 shown):
COS(=O)(=O)[O-].Cn1cc[n+](C)c1 [1,3-dimethylimidazolium methylsulfate]	1801
CCCCCCn1cc[n+](C)c1.F[P-](F)(F)(F)(F)F [1-hexyl-3-methylimidazolium hexafluorophosphate]	1411
CCCCn1cc[n+](C)c1.COS(=O)(=O)[O-] [1-butyl-3-methylimidazolium methyl sulfate]	1645
CCCCCCCC[n+]1ccn(C)c1.F[P-](F)(F)(F)(F)F [1-octyl-3-methylimidazolium hexafluorophosphate]	1393
CCO [ethanol]	1127

Now take the following molecule into account.
Qu. Output speed of sound of CCCCn1cc[n+](C)c1.F[P-](F)(F)(F)(F)F [1-butyl-3-methylimidazolium hexafluorophosphate]
Ans. 1431

====

- CONDITION_CONTEXT: 298.15 K; 101 kPa; Liquid
Threshold 1000 kg/m3: mass density strictly smaller gives 1, otherwise 0.

Below are worked cases with known answers.
CCCCn1cc[n+](C)c1.COS(=O)(=O)[O-] [1-butyl-3-methylimidazolium methyl sulfate]	0
COS(=O)(=O)[O-].Cn1cc[n+](C)c1 [1,3-dimethylimidazolium methylsulfate]	0
CCCCn1cc[n+](C)c1.F[P-](F)(F)(F)(F)F [1-butyl-3-methylimidazolium hexafluorophosphate]	0
CCO	1
CCCCCCCC[n+]1ccn(C)c1.F[P-](F)(F)(F)(F)F [1-octyl-3-methylimidazolium hexafluorophosphate]	0

Qu. Say whether its mass density is strictly beneath 1000 kg/m3. Entry: CCCCCCn1cc[n+](C)c1.F[P-](F)(F)(F)(F)F [1-hexyl-3-methylimidazolium hexafluorophosphate]
Ans. 0

====

- CONDITION_CONTEXT: 293.15 K; 101 kPa; Liquid
± gives the expanded uncertainty stated by the source.
REPORTED_METRIC: speed of sound
Returns: string containing the number followed by the unit.

Qu. Output speed of sound of CCO [ethanol]
Ans. 1160 ± 10 m/s

====

refractive index listing for selected compounds.
- PROTOCOL_SUMMARY: refractive index (Na D-line) (dimensionless)
- CONDITION_CONTEXT: 303.15 K; 101.33 kPa; Liquid
# respond with the number and nothing more

Solved cases (5 shown):
CCO [ethanol]	1.35725
COS(=O)(=O)[O-].Cn1cc[n+](C)c1 [1,3-dimethylimidazolium methylsulfate]	1.48129
CCCCCCn1cc[n+](C)c1.F[P-](F)(F)(F)(F)F [1-hexyl-3-methylimidazolium hexafluorophosphate]	1.41643
CCCCn1cc[n+](C)c1.F[P-](F)(F)(F)(F)F [1-butyl-3-methylimidazolium hexafluorophosphate]	1.40808
CCCCn1cc[n+](C)c1.COS(=O)(=O)[O-] [1-butyl-3-methylimidazolium methyl sulfate]	1.47806

Qu. Output refractive index of CCCCCCCC[n+]1ccn(C)c1.F[P-](F)(F)(F)(F)F [1-octyl-3-methylimidazolium hexafluorophosphate]
Ans. 1.42165

====

- CONDITION_CONTEXT: 303.15 K; 101 kPa; Liquid
mass density listing for selected molecules.
// return numeric value only (unit: kg/m3, not printed)

Solved cases (5 shown):
CCCCCCn1cc[n+](C)c1.F[P-](F)(F)(F)(F)F [1-hexyl-3-methylimidazolium hexafluorophosphate]	1289.6
CCO [ethanol]	780.7
CCCCCCCC[n+]1ccn(C)c1.F[P-](F)(F)(F)(F)F [1-octyl-3-methylimidazolium hexafluorophosphate]	1231.9
CCCCn1cc[n+](C)c1.F[P-](F)(F)(F)(F)F [1-butyl-3-methylimidazolium hexafluorophosphate]	1363
CCCCn1cc[n+](C)c1.COS(=O)(=O)[O-] [1-butyl-3-methylimidazolium methyl sulfate]	1208.8

Qu. Output mass density of COS(=O)(=O)[O-].Cn1cc[n+](C)c1 [1,3-dimethylimidazolium methylsulfate]
Ans. 1323.7

====

- CONDITION_CONTEXT: 293.15 K; 101 kPa; Liquid
REPORTED_METRIC: speed of sound (m/s)
// return numeric value only (unit: m/s, not printed)

Solved cases (4 shown):
CCCCCCCC[n+]1ccn(C)c1.F[P-](F)(F)(F)(F)F [1-octyl-3-methylimidazolium hexafluorophosphate]	1424
CCCCn1cc[n+](C)c1.COS(=O)(=O)[O-] [1-butyl-3-methylimidazolium methyl sulfate]	1671
COS(=O)(=O)[O-].Cn1cc[n+](C)c1 [1,3-dimethylimidazolium methylsulfate]	1826
CCCCn1cc[n+](C)c1.F[P-](F)(F)(F)(F)F [1-butyl-3-methylimidazolium hexafluorophosphate]	1455

Qu. Output speed of sound of CCCCCCn1cc[n+](C)c1.F[P-](F)(F)(F)(F)F [1-hexyl-3-methylimidazolium hexafluorophosphate]
Ans. 1438
